Quick list: GI50 per entry.
# System: TK-10
# runDescription: NCI tumour cell line growth inhibition, 48 h
The source made the active and inactive calls. No stated cut-off is given here; in the data, active = GI50 up to about 1.1 µM and inactive = higher.

Worked examples follow.
Cc1c(-c2ccccc2)c(C#N)c2nnc(C(N)=O)c(N)n12
> 100 µM (inactive)
c1ccc(N2CCN(CCN3CCc4c([nH]c5ccccc45)C3c3cccnc3)CC2)cc1 (centres undefined)
> 100 µM (inactive)
CCOC(=O)c1cn2c(n1)sc1cc(Cl)ccc12
> 100 µM (inactive)

For record N=C(N)NS(=O)(=O)c1ccc(NNc2c3ccccc3nc3c(C(=O)Nc4ccc(S(N)(=O)=O)cc4)cccc23)cc1 the listed GI50 is > 100 µM (inactive)

GET /value?item= COc1ccc(/C=C2/SC(c3ccc(Cl)cc3)N(NC(=O)CCCCCCCCC(=O)NN3C(=O)/C(=C\c4ccc(OC)c(OC)c4)SC3c3ccc(Cl)cc3)C2=O)cc1OC (centres undefined) &field=GI50 returns 75.2 µM (inactive)

Reported GI50 ( COC(=O)/C=C1\CCC2[C@@H](C(=O)CC3[C@]2(C)CCC[C@@]3(C)C(=O)OC)C1C (some centres undefined) ) = 19.5 µM (inactive)

Entry O=C(Nc1ccc(Cl)c(C(F)(F)F)c1)C(=O)C(C(=O)/C=C/c1ccccc1)C1OC(=O)c2ccccc21 (centres undefined) — recorded GI50 = > 100 µM (inactive)

Looking up NC(=O)NCCCC(NC(=O)OCCCCCCn1ccc(=O)[nH]c1=O)C(=O)O (centres undefined) , I see its GI50 listed as > 100 µM (inactive)

Please fill in: GI50 reported for O=C1c2ccccc2C(Br)(Br)c2ccccc21 = > 100 µM (inactive)
